test: protein stability index of a GFP-peptide fusion (GPS, HEK-293T) (PSI 1-6); higher = more stable; conditions: treatment: MLN4924 1 uM, 8 h; c terminus: a fixed tail appended;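 also: 24-mer peptide tiles fused after GFP, lentivirally expressed, FACS-sorted into six equal bins by GFP/DsRed ratio, decoded by Illumina sequencing, PSI is the read-weighted mean bin number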

# ordered.residues, protein stability index
rows = [
    ("LLTTSPVFPHYIEKPLGRVGVFLD [TRIM43]", 2.31),
    ("QYRWDMMHRLGEPQARMREENMER [BEX1]", 4.23),
    ("EDQVPALEAPEDIGSTSESKDWEE [MIA2]", 5.71),
    ("HQKLEREARICRLLKHSNIVRLHD [CAMK2B]", 2.66),
    ("APLSGPQALMLPPGSFWGLCQVAQ [VENTX]", 2.27),
    ("PSGSLENGTKADGKDAKTTNGHGG [TRIM29]", 5.58),
    ("SELIVHIFSFLPAPDRLRASASCS [FBXO33]", 1.94),
    ("LGFKANIMNEKCVVENAEKILGYL [SLC6A17]", 2.26),
    ("PSRREPPPRRSRSRSHDRLPYQRR [CLK3]", 5.23),
    ("LTPADKAEHMKRQRHPRLRPQSAQ [AUP1]", 4.57),
    ("NVTNLEGGPGRQTTSPNVLWPTPG [ESR2]", 3.17),
    ("APPGSLVTKVTAVDADAGHNAWLS [PCDHGC5]", 4),
    ("EPRQRRLLLLDLLALYTPVGAAGS [ANKRD9]", 2.44),
]

====

Recorded protein stability index, one value per entry.
experiment: protein stability index of a GFP-peptide fusion (GPS, HEK-293T) (PSI 1-6); higher = more stable; conditions: treatment: DMSO; c terminus: native

# ordered.residues, protein stability index
records = [
    ("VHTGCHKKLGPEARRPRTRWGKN", 2.8),
    ("TITEEIRDGKVISSREHVQSRPL [KRT36]", 5.23),
    ("GRREGCDICAGKAGCPIVEEPLG [RPS21]", 4.03),
    ("EFSVPFTEMKLRPRNFRSPAGGG [TNXB]", 3.4),
    ("NIIAIAATNNLYIFQDKVNSDMH [PPP2R2C]", 2.36),
    ("AEAQKNMYFKTRLKCPRSLSGGR [ZNF396]", 2.72),
    ("SSGEPVDYNVDIGIPLDGETEEL [MYOZ1]", 5.5),
    ("ERELLGQDEETAMRKSLGEEELS [RSPH3]", 5.48),
    ("EVEGTKPSATEMIWAVLAAFNKS [GOLPH3L]", 2.4),
    ("RAASSQRAEEEDDDIKQLAAWAT [CHMP4C]", 5.34),
    ("TFQEPLYPALRLWEGAISIPRLP [TRIM14]", 2.65),
    ("VSLGQKLVAAYVLGLLTMVFLRT [MOSPD3]", 2.56),
    ("RWLMVKIFLILIVFFIIFVVFLA [STX5]", 4.3),
    ("RKQLQPTHCKYEGPRKARRLWFA", 2.85),
    ("RYFPAGNVVNEGFFEENVLPPKK [GLIPR2]", 4.72),
]

====

assay: protein stability index of a GFP-peptide fusion (GPS, HEK-293T) (PSI 1-6); higher = more stable; details: treatment: DMSO; c terminus: a fixed tail appended
The sequences listed here are annotated with their protein stability index.

# ordered.residues, protein stability index
records = [
    ("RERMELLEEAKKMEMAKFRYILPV [RIPK4]", 2.48),
    ("SRGSPVRVKREFEPASAREAPASV [USP39]", 4.47),
    ("GPAGPYLLSKKGALQSRAAQRHRG [PLEKHN1]", 4.16),
    ("CICWSPFLVTMANIGINGNHSLET [PTGFR]", 2.82),
    ("EETGSRFHNCLIQLYCEKVQGLMK [VPS39]", 2.48),
    ("FRVTLWVHPFVNYNSSRFGEGVER [MYORG]", 2.77),
    ("IFRSKLKNRPSSEGSINKILSGLD [CDC14A]", 2.27),
    ("DALTKLEQGEPLWTLEDEIHSPAH [ZNF649]", 3.49),
    ("VDIGMMKEFILTDEEVQRKREMIL [VDR]", 3.24),
    ("KVIVVMRSLFIDRTIVKGYNENVY [MED27]", 2.77),
    ("SKVVVPPLPGKAFLRQLPFRGDDG [SNX3]", 3.45),
    ("CGDELPWTLQRRLTRLRTASGHEP [PLEKHN1]", 2.68),
    ("VAQGPFDSFVVQYEDTNGQPQALL [TNXB]", 3.43),
    ("HEPPFHLDREIRLQRLSHSGSRVR [SCNN1D]", 4.27),
    ("MAVALGCAIQASLNQGSVFQEYDT [ZNF449]", 3.91),
    ("GTDSAGPKTVPSHVFSELWDLSEA [ELOA2]", 3.95),
    ("GPHTISNQNNYRLLSCGKILTGCK [ACSBG2]", 3.21),
    ("SRALALFDIQKIMQEKNPVHVIGV [ZNF8]", 2.52),
    ("AALNNHPDIMNLLIKSGAHFDATN [FEM1C]", 2.41),
    ("KSSSVDSELTSLCQSVLEDFNLCL [SMG5]", 2.95),
    ("VFEKAGVSISVVHGNLSEEAAKQM [CPOX]", 3.72),
    ("AVEWARNIPFFPDLQITDQVALLR [NR2F2]", 2.64),
    ("GVIRMWADEGSRNSRFQMLFTSFQ [NETO1]", 2.34),
    ("ESKVKDILSKVQKNHVGKPLLKMD [FAM98B]", 3.49),
    ("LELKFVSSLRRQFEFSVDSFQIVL [TENT5D]", 3.41),
    ("FNNGAHMSLLPDKKTVHYYAELGQ [PLK2]", 2.92),
    ("GRIACANVLSDLYAMGITECDNML [SEPHS2]", 2.4),
    ("PKRLRCWEEEEDHEKERPEHKSLE [FANCE]", 5.32),
    ("VQERLTKQIAVAITEALRPAGVGV [GCH1]", 2.23),
    ("LDKKVEKVTISNRLVSSPCCIVTS [HSP90AB1]", 3.28),
    ("VSISIISSTSGGSGYGFRPSMVSG [KRT71]", 2.84),
    ("SVRRSESWARPRPDEERPLRRPRP [RASAL3]", 4.92),
    ("EPPPVKQELPPYNGFGLVEDSAQN [EFHC1]", 5.15),
    ("HGAHKAEKKLFECLTCGKSFRQGM [ZNF263]", 2.67),
    ("AYHVPNRTLASGRLLSYRGERVAA [DNAAF3]", 3.31),
    ("MALPGARARGWAAAARAAQRRRRV [RSAD1]", 4.64),
    ("ITVGLVFLCLQYRLRGKLRAEIEN [MOG]", 3.18),
    ("SWSQYEMPEFSSDSTMRILSNLVQ [RTP4]", 2.48),
    ("PASGASSIKPEASQMPPPAGGTSD [SCNN1D]", 5.43),
    ("ENTCLLRGFSGGILAFLVLEAVAG [TSPAN10]", 3.27),
    ("STLLGEMDLLTQSLGVDTLPPPDP [APBB1IP]", 3.79),
    ("RLMRDMAQLRLQLEVSQLEGSLQQ [SMG5]", 2.39),
    ("QGTAEEDHVDLSLSCTLVPRSGEQ [CDKN1A]", 5.19),
    ("THLENPTRYHLQQARRQQVKQYLS [TFE3]", 3.38),
    ("AGVGLSGGAAGAGWCIFVYNLSPE [ELAVL3]", 3.13),
    ("QYRWDMMHRLGEPQARMREENMER [BEX1]", 4.1),
    ("VVKVISTIPATLLVDHVGSKTFLC [SLC2A12]", 2.95),
    ("RLGELFNPYYDPLQWKSSHFERRD [CHGB]", 2.45),
    ("GEASYSTIAPTLIADLFVADQRSR [SPNS1]", 3.21),
    ("LNYTYKRFEGLTQRGSIPTYMKAG [STK38L]", 2.5),
    ("INLEGKTFYSKKDRPLCKSHAFSH [PDLIM7]", 2.55),
    ("HKHVVQFYHYFEDKENIYILLEYC [PLK2]", 2.63),
    ("EPMWSGSTMRRMALRPTAFSGCLN [EMID1]", 2.82),
]
